IC50 values recorded for ASK1 (Homo sapiens (Human), UniProt Q99683)

For ASK1 (Homo sapiens (Human), UniProt Q99683), give IC50 of the listed compound: CC1c2cc(C(=O)Nc3cccc(-c4nnnn4C(C)C)n3)c(F)cc2CCN1C(=O)N1CCCC1 (stereo not drawn)
0.01 to 0.1 µM

For ASK1 (Homo sapiens (Human), UniProt Q99683), give IC50 of the listed compound: CC(C)n1cnnc1-c1cccc(NC(=O)c2cc3c(cc2F)CCN(C(=O)NC2CCCC2)C3)n1
0.001 to 0.01 µM

For ASK1 (Homo sapiens (Human), UniProt Q99683), give IC50 of the listed compound: C[C@H](CO)n1nnnc1-c1cccc(NC(=O)c2cc3c(cn2)CCN(C(=O)OC2CC4CCC(C2)N4C)C3)n1 (stereo partly drawn)
0.001 to 0.01 µM

For ASK1 (Homo sapiens (Human), UniProt Q99683), give IC50 of the listed compound: CC(C)n1nnnc1-c1cccc(NC(=O)c2cc3c(cc2F)CCN(S(=O)(=O)CCC(F)(F)F)C3)n1
0.01 to 0.1 µM

For ASK1 (Homo sapiens (Human), UniProt Q99683), give IC50 of the listed compound: CC(C)CN1CCc2cnc(C(=O)Nc3cccc(-c4nnnn4[C@H](C)CO)n3)cc2C1
0.001 to 0.01 µM

For ASK1 (Homo sapiens (Human), UniProt Q99683), give IC50 of the listed compound: C[C@H](CO)n1nnnc1-c1cccc(NC(=O)c2cc3c(cn2)CCN(C(=O)OC2CCC2)C3)n1
0.001 to 0.01 µM
